- experimental-system: recombinant human serotonin transporter (hSERT) (Homo sapiens, UniProt P31645)
- Sequence (P31645 whole entry): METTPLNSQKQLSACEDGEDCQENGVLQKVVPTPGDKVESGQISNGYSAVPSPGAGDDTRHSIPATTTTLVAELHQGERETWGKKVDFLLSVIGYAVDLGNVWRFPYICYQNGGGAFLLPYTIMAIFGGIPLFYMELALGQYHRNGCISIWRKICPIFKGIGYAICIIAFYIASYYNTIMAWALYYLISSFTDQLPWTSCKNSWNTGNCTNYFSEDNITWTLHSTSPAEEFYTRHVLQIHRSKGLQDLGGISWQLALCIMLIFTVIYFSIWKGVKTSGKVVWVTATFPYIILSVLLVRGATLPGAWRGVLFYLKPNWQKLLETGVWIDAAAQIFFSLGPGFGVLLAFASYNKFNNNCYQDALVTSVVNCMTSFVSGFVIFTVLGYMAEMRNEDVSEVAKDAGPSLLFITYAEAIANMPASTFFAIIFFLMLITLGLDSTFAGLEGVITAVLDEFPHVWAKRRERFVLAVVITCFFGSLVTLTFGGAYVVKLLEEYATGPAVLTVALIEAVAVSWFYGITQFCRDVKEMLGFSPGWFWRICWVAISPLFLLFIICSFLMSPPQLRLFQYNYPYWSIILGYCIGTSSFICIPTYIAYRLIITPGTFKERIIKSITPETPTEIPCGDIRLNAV
- protocol-notes: [125I]RTI-55 binding, HEK-hSERT
- reported-conditions: used in Cheng-Prusoff equation
value-type: Kd (pM)
All answers are understood in pM, so give the number only.

Just so you know, measured Kd for COC(=O)[C@H]1[C@@H](c2ccc(I)cc2)C[C@@H]2CC[C@H]1N2C [[^125I]RTI-55] came out at 980

* * *

Entries and their Ki
- experimental-system: human 5HT1A receptor (Homo sapiens, UniProt P08908)
- Construct: expressed in transfected cells; host or cells: HEK cells (G418 selection)
- Sequence (P08908 whole entry): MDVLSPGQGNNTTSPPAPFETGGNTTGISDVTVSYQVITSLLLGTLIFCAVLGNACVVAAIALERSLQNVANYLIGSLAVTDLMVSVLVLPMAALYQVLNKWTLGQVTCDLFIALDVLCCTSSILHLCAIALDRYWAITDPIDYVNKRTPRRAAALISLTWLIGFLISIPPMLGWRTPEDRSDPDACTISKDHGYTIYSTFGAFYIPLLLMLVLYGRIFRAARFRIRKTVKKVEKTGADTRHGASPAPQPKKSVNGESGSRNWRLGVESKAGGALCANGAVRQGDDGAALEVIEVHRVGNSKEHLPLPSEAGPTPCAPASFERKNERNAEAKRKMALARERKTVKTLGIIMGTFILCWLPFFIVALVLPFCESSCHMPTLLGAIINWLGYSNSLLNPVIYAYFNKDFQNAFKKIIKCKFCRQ
- protocol-notes: h5HT1A receptors: [3H]8-OH-DPAT binding
- reported-conditions: cells printed in μM under a head in nM; read-out: 5-HT1A [^3H] 8—OH DPAT Ki(nM) ± SEM

[[record]]
compound = "CCOC(=O)[C@@H]1CN(CCn2c(=O)[nH]c3ccccc3c2=O)CC[C@@H]1c1ccc(F)cc1 (racemic)"
value_type = "Ki"
value_measured = "> 9 µM"

[[record]]
compound = "CCOC(=O)[C@H]1CN(CCn2c(=O)[nH]c3ccccc3c2=O)CC[C@H]1c1cccc(N(C)C)c1 (racemic)"
value_type = "Ki"
value_measured = "> 10 µM"

[[record]]
compound = "CCOC(=O)[C@@H]1CN(CCn2c(=O)[nH]c3ccccc3c2=O)CC[C@@H]1c1ccccc1 (racemic)"
value_type = "Ki"
value_measured = "> 10 µM"


Just so you know, measured Ki for CCOC(=O)[C@@H]1CN(CCn2c(=O)[nH]c3ccccc3c2=O)CC[C@@H]1c1cccc(C(F)(F)F)c1 (racemic) came out at > 10 µM

* * *

- experimental-system: VMAT2 (Homo sapiens)
- protocol-notes: hVMAT2 5HT Uptake
- Assay type: biochemical
- Design: expressed in transfected cells; host or cells: HEK (human embryonic kidney) cells
Returns: string. Value is met if measured IC50 is below 100 nM, and not met if it is greater than or equal to it.

Solved cases below.
[[record]]
molecule = "CCOC(=O)C1=C(c2ccccc2)CCN(CCn2c(=O)[nH]c3ccccc3c2=O)C1"
experimental_system = "VMAT2 (Homo sapiens)"
assigned_class = "met"

[[record]]
molecule = "CCOC(=O)[C@H]1CN(CCn2c(=O)[nH]c3ccccc3c2=O)CC[C@H]1c1ccc(C)s1"
experimental_system = "VMAT2 (Homo sapiens)"
assigned_class = "not met"


## Task Say whether its IC50 is strictly beneath 100 nM. Entry: CCOC(=O)[C@H]1CN(CCCn2c(=O)[nH]c3ccccc3c2=O)CC[C@H]1c1ccc(F)cc1 (racemic)
## Result met

## Task Say whether its IC50 is strictly beneath 100 nM. Entry: CCOC(=O)[C@H]1CN(CCCCn2c(=O)[nH]c3ccccc3c2=O)CC[C@H]1c1ccc(F)cc1 (racemic)
## Result not met

## Task Say whether its IC50 is strictly beneath 100 nM. Entry: `O=c1[nH]c2ccccc2c(=O)n1CCN1CC=C(c2ccccc2)CC1`
## Result met

* * *

- experimental-system: VMAT2 (Homo sapiens, UniProt Q05940)
- Sequence (Q05940 whole entry): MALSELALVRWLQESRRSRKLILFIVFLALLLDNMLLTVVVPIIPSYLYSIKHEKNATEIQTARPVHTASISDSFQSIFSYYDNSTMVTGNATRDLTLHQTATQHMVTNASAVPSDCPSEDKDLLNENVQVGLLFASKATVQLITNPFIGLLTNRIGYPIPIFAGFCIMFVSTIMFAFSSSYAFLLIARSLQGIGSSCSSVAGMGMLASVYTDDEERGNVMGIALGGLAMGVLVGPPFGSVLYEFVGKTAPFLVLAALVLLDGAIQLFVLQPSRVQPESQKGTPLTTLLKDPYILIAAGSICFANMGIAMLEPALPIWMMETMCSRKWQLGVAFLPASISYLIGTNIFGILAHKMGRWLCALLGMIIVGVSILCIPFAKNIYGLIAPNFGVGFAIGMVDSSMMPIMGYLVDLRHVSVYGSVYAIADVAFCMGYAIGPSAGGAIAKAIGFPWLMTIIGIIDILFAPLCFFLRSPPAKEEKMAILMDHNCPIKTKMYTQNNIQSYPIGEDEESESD
- protocol-notes: hVMAT2 5HT Uptake
- Assay type: biochemical
- Design: expressed in transfected cells; host or cells: HEK (human embryonic kidney) cells
- reported-conditions: cells printed in μM under a head in nM; read-out: hVMAT2 5HT Uptake IC50 (nM) ± SEM
value-type: IC50

[[record]]
compound = "CCOC(=O)[C@@H]1CN(CCn2c(=O)[nH]c3ccccc3c2=O)CC[C@@H]1c1ccc(C(C)O)cc1 (mixture of isomers)"
value_measured = "> 8 µM"

[[record]]
compound = "CC1CN(CCn2c(=O)[nH]c3ccccc3c2=O)CCC1C(=O)c1ccc(F)cc1 (single isomer, unassigned)"
value_measured = "> 7.3 µM"


Lab note: next compound to report on.
Just so you know, measured IC50 for CCOC(=O)[C@@H]1CN(CCn2c(=O)[nH]c3ccccc3c2=O)CC[C@@H]1c1ccc(C(N)=O)cc1 (racemic) came out at > 10 µM

* * *

- experimental-system: human 5HT2A receptor (Homo sapiens, UniProt P28223)
- Construct: expressed in transfected cells; host or cells: HEK cells
- Sequence (P28223 whole entry): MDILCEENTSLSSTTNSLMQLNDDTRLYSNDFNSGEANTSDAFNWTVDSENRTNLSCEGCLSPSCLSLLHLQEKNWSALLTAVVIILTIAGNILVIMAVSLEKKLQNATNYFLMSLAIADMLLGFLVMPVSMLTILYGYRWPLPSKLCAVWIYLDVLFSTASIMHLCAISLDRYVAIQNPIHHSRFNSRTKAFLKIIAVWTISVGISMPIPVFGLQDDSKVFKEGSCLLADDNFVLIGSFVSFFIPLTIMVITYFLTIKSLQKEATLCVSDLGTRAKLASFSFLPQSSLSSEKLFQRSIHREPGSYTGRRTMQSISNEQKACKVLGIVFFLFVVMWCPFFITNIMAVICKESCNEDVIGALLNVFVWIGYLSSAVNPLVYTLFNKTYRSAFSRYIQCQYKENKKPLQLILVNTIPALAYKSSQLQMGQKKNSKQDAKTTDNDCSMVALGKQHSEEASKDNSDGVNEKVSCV
- protocol-notes: h5HT2A receptors: [125I]DOI binding
- reported-conditions: HEK-h5HT2A homogenate; read-out: 5-HT2A [^125I]DOI Ki (nM) ± SEM
Returns: string. Value is satisfied if measured Ki is below 40 nM, and not satisfied if it is greater than or equal to it.

Solved cases below.
[[record]]
molecule = "O=C(c1ccc(F)cc1)C1CCN(CCn2c(=O)[nH]c3ccc(Br)cc3c2=O)CC1 [R1=Br, R2=H]"
assigned_class = "satisfied"

[[record]]
molecule = "CCOC(=O)[C@@H]1CN(CCn2c(=O)[nH]c3ccccc3c2=O)CC[C@@H]1c1ccccc1 (racemic) [Compound 5a]"
assigned_class = "satisfied"

[[record]]
molecule = "CC1CN(CCn2c(=O)[nH]c3ccccc3c2=O)CCC1C(=O)c1ccc(F)cc1 (racemic) [R1=H, R2=α/β-CH3]"
assigned_class = "not satisfied"

[[record]]
molecule = "CC1CN(CCn2c(=O)[nH]c3ccccc3c2=O)CCC1C(=O)c1ccc(F)cc1 (single isomer, unassigned) [R1=H, R2=α-CH3]"
assigned_class = "satisfied"


## Task Say whether its Ki is strictly beneath 40 nM. Entry: O=c1[nH]c2ccccc2c(=O)n1CCN1CC=C(c2ccccc2)CC1 [R1=H, 3,4-bond=ene]
## Result not satisfied

* * *

- experimental-system: human 5HT2A receptor (Homo sapiens)
- Construct: expressed in transfected cells; host or cells: HEK cells
- protocol-notes: h5HT2A receptors: [125I]DOI binding
value-type: pKi
Lab note — pKi values are minus log10 of concentrations in M.

Just so you know, measured pKi for `CCOC(=O)C1=C(c2ccccc2)CCN(CCn2c(=O)[nH]c3ccccc3c2=O)C1` came out at 7.09

* * *

- experimental-system: VMAT2 (Homo sapiens)
- protocol-notes: hVMAT2 5HT Uptake
- Assay type: biochemical
- Design: expressed in transfected cells; host or cells: HEK (human embryonic kidney) cells
- reported-conditions: [^3H]5HT uptake, HEK-hVMAT2 preparation; read-out: hVMAT2 5HT Uptake IC50 (nM) ± SEM
- Experimental: Membrane preparation for binding, uptake and release assays using HEK-hVMAT2 cells: Human embryonic kidney cells expressing the human vesicular monoamine transporter 2 (HEK-hVMAT2) were used. HEK-hVMAT2 cells were grown until confluent. The media was removed from plates, solution A [sucrose (0.32 M) with protease inhibitors] was added to the plate, and cells were scraped from plate. Cells were homogenized with 12 strokes of a glass/glass homogenizer. […]
Returns: string. Value is class 1 if measured IC50 is below 200 nM, and class 0 if it is greater than or equal to it.

Solved cases below.
[[record]]
compound = "CCOC(=O)[C@@H]1CN(CCn2c(=O)[nH]c3ccccc3c2=O)CC[C@@H]1c1ccc(C(F)(F)F)cc1 (racemic) [Compound 5f]"
assigned_class = "class 0"

[[record]]
compound = "CCOC(=O)[C@@H]1CN(CCn2c(=O)[nH]c3ccccc3c2=O)CC[C@@H]1c1ccc(F)c(F)c1 (racemic) [Compound 5ss]"
assigned_class = "class 1"

[[record]]
compound = "CCOC(=O)[C@@H]1CN(CCn2c(=O)[nH]c3ccccc3c2=O)CC[C@@H]1c1cccc(Cl)c1 (racemic) [Compound 5pp]"
assigned_class = "class 1"

[[record]]
compound = "CCOC(=O)[C@@H]1CN(CCn2c(=O)c3ccccc3n(Cc3ccccc3)c2=O)CC[C@@H]1c1ccc(F)cc1 (racemic) [Compound 6c]"
assigned_class = "class 0"


## Task Say whether its IC50 is strictly beneath 200 nM. Entry: CCOC(=O)[C@H]1CN(CCn2c(=O)[nH]c3ccccc3c2=O)CC[C@H]1c1ccccc1C (racemic) [Compound 5z]
## Result class 1

## Task Say whether its IC50 is strictly beneath 200 nM. Entry: CC1CN(CCn2c(=O)[nH]c3ccccc3c2=O)CCC1C(=O)c1ccc(F)cc1 (racemic) [R1=H, R2=α/β-CH3]
## Result class 0

## Task Say whether its IC50 is strictly beneath 200 nM. Entry: CCOC(=O)[C@H]1CN(CCn2c(=O)[nH]c3ccccc3c2=O)CC[C@H]1c1ccc(C(C)C)cc1 (racemic) [Compound 5u]
## Result class 0

## Task Say whether its IC50 is strictly beneath 200 nM. Entry: CCOC(=O)[C@H]1CN(CCn2c(=O)[nH]c3ccccc3c2=O)CC[C@H]1c1ccc(N)cc1 (racemic) [Compound 5mm]
## Result class 0

## Task Say whether its IC50 is strictly beneath 200 nM. Entry: CCOC(=O)[C@@H]1CN(CCn2c(=O)[nH]c3sccc3c2=O)CC[C@@H]1c1ccc(C(F)(F)F)cc1 (racemic) [Compound 7c]
## Result class 0

## Task Say whether its IC50 is strictly beneath 200 nM. Entry: CCOC(=O)[C@@H]1CN(CCn2c(=O)[nH]c3ccccc3c2=O)CC[C@@H]1c1cccc(C(F)(F)F)c1 (racemic) [Compound 5g]
## Result class 1

## Task Say whether its IC50 is strictly beneath 200 nM. Entry: CCOC(=O)[C@H]1CN(CCn2c(=O)[nH]c3ccccc3c2=O)CC[C@H]1c1cccc(N=[N+]=[N-])c1 (racemic) [Compound 5cc]
## Result class 1

## Task Say whether its IC50 is strictly beneath 200 nM. Entry: CCOC(=O)[C@H]1CN(CCn2c(=O)[nH]c3ccccc3c2=O)CC[C@H]1c1cccc(OC)c1 (racemic) [Compound 5q]
## Result class 1

## Task Say whether its IC50 is strictly beneath 200 nM. Entry: CCOC(=O)[C@@H]1CN(CCn2c(=O)c3ccccc3n(C)c2=O)CC[C@@H]1c1cccc(F)c1 (racemic) [Compound 6d]
## Result class 1
